B1: glmS ribozyme (parent)
chain: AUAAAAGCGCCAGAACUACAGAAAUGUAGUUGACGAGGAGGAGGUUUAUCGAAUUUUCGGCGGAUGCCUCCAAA

Variants of: B1
Assay: self-cleavage kobs at 10000 uM GlcN6P; higher = faster cleavage; RNA array
Conditions: with glucosamine-6-phosphate
Variants at the floor of the assay were thinned out.
Use 0.0007 s⁻¹ as the dividing line for self-cleavage kobs at 10000 uM GlcN6P, with the line itself on the satisfied side and lower values as not satisfied.

{"variantDesignation": "A12U", "classification": "satisfied"}
{"variantDesignation": "A14C G44C C67G", "classification": "satisfied"}
{"variantDesignation": "G37U U45G U46C G63A C68A", "classification": "not satisfied"}
{"variantDesignation": "G32U U54C", "classification": "not satisfied"}
{"variantDesignation": "A36U U65G", "classification": "not satisfied"}
{"variantDesignation": "U45A G59A", "classification": "not satisfied"}
{"variantDesignation": "A36C U46A C58A", "classification": "not satisfied"}
{"variantDesignation": "G60U C70A", "classification": "not satisfied"}
{"variantDesignation": "G32U U57G", "classification": "not satisfied"}
{"variantDesignation": "G9C A42G", "classification": "not satisfied"}
{"variantDesignation": "U30G A39C", "classification": "satisfied"}

These measurements were taken from the supplement of paper PMC7125110.
